Sourced from ChEMBL document CHEMBL2086239

Test system: IMR-32
method: Cytotoxicity against human IMR32 cells after 48 hrs assessed as inhibition of cell growth at 10 uM after 48 hrs by SRB assay relative to control
Format: functional
study.conditions: IMR-32, 48 h, read-out: GI
Catalogue of inhibition of growth at 10 µM values

| entry.smiles | system.tested | inhibition of growth at 10 µM (%) |
| --- | --- | --- |
| COc1ccc(/C=C\c2cc(OC)c(OC)c(OC)c2)cc1OCC(=O)Nc1nc2ccc([N+](=O)[O-])cc2s1 | IMR-32 | 88 |
| COc1ccc(/C=C\c2cc(OC)c(OC)c(OC)c2)cc1OCC(=O)Nc1nc2ccc(OC(F)(F)F)cc2s1 | IMR-32 | 44 |
| CCOc1ccc2nc(NC(=O)COc3cc(/C=C\c4cc(OC)c(OC)c(OC)c4)ccc3OC)sc2c1 | IMR-32 | 54 |
| COc1ccc(/C=C\c2cc(OC)c(OC)c(OC)c2)cc1OCC(=O)Nc1nc2c(C)cccc2s1 | IMR-32 | 34 |
| COc1cccc2c1C(=O)c1c(O)c3c(c(O)c1C2=O)C[C@@](O)(C(=O)CO)C[C@@H]3O[C@H]1C[C@H](N)[C@H](O)[C@H](C)O1 | IMR-32 | 73 |
| COc1ccc(/C=C\c2cc(OC)c(OC)c(OC)c2)cc1OCC(=O)Nc1nc2ccc(C(F)(F)F)cc2s1 | IMR-32 | 23 |
| COc1ccc(/C=C\c2cc(OC)c(OC)c(OC)c2)cc1O | IMR-32 | 89 |
| COc1ccc(/C=C\c2cc(OC)c(OC)c(OC)c2)cc1OCC(=O)Nc1nc2cc(C)c(C)cc2s1 | IMR-32 | 55 |
| COc1ccc(/C=C\c2cc(OC)c(OC)c(OC)c2)cc1OCC(=O)Nc1nc2ccc(Cl)cc2s1 | IMR-32 | 51 |
| COc1ccc(/C=C\c2cc(OC)c(OC)c(OC)c2)cc1OCC(=O)Nc1ccc2ncsc2c1 | IMR-32 | 46 |
| COc1ccc(/C=C\c2cc(OC)c(OC)c(OC)c2)cc1OCC(=O)Nc1ccc2nc(C)sc2c1 | IMR-32 | 62 |
| COc1ccc(/C=C\c2cc(OC)c(OC)c(OC)c2)cc1OCC(=O)Nc1nc2ccc(F)cc2s1 | IMR-32 | 77 |
| COc1ccc2nc(NC(=O)COc3cc(/C=C\c4cc(OC)c(OC)c(OC)c4)ccc3OC)sc2c1 | IMR-32 | 73 |
| COc1ccc(/C=C\c2cc(OC)c(OC)c(OC)c2)cc1OCC(=O)Nc1nc2ccccc2s1 | IMR-32 | 91 |

----------
Test system: HT-29
method: Growth inhibition of human HT-29 cells after 48 hrs by SRB assay
Type: functional
study.conditions: HT-29, 48 h
experimental.readout: log10(GI50) (log10 of the value in µM)

| entry.smiles | system.tested | log10(GI50) |
| --- | --- | --- |
| COc1ccc(/C=C\c2cc(OC)c(OC)c(OC)c2)cc1OCC(=O)Nc1nc2ccc(C(F)(F)F)cc2s1 | HT-29 | 1.17 |
| COc1ccc2nc(NC(=O)COc3cc(/C=C\c4cc(OC)c(OC)c(OC)c4)ccc3OC)sc2c1 | HT-29 | 0.52 |
| COc1ccc(/C=C\c2cc(OC)c(OC)c(OC)c2)cc1O | HT-29 | -1.00 |
| COc1ccc(/C=C\c2cc(OC)c(OC)c(OC)c2)cc1OCC(=O)Nc1nc2ccccc2s1 | HT-29 | 0.50 |
| COc1ccc(/C=C\c2cc(OC)c(OC)c(OC)c2)cc1OCC(=O)Nc1nc2ccc(F)cc2s1 | HT-29 | 0.98 |
| COc1ccc(/C=C\c2cc(OC)c(OC)c(OC)c2)cc1OCC(=O)Nc1ccc2nc(C)sc2c1 | HT-29 | 0.52 |

----------
System: SF-539
method: Growth inhibition of human SF539 cells after 48 hrs by SRB assay
Type: functional
study.conditions: SF-539, 48 h

| molecule | GI50 (µM) |
| --- | --- |
| COc1ccc(/C=C\c2cc(OC)c(OC)c(OC)c2)cc1OCC(=O)Nc1ccc2nc(C)sc2c1 | 2.56 |
| COc1ccc(/C=C\c2cc(OC)c(OC)c(OC)c2)cc1OCC(=O)Nc1nc2ccc(OC(F)(F)F)cc2s1 | 2.28 |
| COc1ccc(/C=C\c2cc(OC)c(OC)c(OC)c2)cc1O [COMBRETASTATIN A4] | 0.002 |
| COc1ccc2nc(NC(=O)COc3cc(/C=C\c4cc(OC)c(OC)c(OC)c4)ccc3OC)sc2c1 | 2.84 |

----------
System: MCF7
method: Cell cycle arrest in human MCF7 cells assessed as accumulation at G2/M phase at 4 uM after 24 hrs by FACS analysis (reference value: 34.88%)
Format: functional
Catalogue of Activity values

| entry.smiles | uom | Activity |
| --- | --- | --- |
| COc1ccc(/C=C\c2cc(OC)c(OC)c(OC)c2)cc1OCC(=O)Nc1nc2c(C)cccc2s1 | % | 28.48 |
| COc1ccc(/C=C\c2cc(OC)c(OC)c(OC)c2)cc1OCC(=O)Nc1ccc2nc(C)sc2c1 | % | 37.09 |
| COc1ccc(/C=C\c2cc(OC)c(OC)c(OC)c2)cc1OCC(=O)Nc1nc2cc(C)c(C)cc2s1 | % | 16.37 |
| COc1ccc(/C=C\c2cc(OC)c(OC)c(OC)c2)cc1OCC(=O)Nc1nc2ccc(F)cc2s1 | % | 42.08 |
| COc1ccc(/C=C\c2cc(OC)c(OC)c(OC)c2)cc1OCC(=O)Nc1nc2ccc(C(F)(F)F)cc2s1 | % | 37.02 |
| CCOc1ccc2nc(NC(=O)COc3cc(/C=C\c4cc(OC)c(OC)c(OC)c4)ccc3OC)sc2c1 | % | 37.67 |
| COc1ccc(/C=C\c2cc(OC)c(OC)c(OC)c2)cc1O | % | 61.23 |

----------
System: THP-1
method: Cytotoxicity against human THP1 cells after 48 hrs assessed as inhibition of cell growth at 10 uM after 48 hrs by SRB assay relative to control
Type: functional
study.conditions: THP-1, 48 h, read-out: GI
Lab note: anything with inhibition of growth at 10 µM at or over 50% counts as 1 (yes); the rest go in 0 (no).

| molecule | system.tested | cat |
| --- | --- | --- |
| COc1cccc2c1C(=O)c1c(O)c3c(c(O)c1C2=O)C[C@@](O)(C(=O)CO)C[C@@H]3O[C@H]1C[C@H](N)[C@H](O)[C@H](C)O1 [DOXORUBICIN] | THP-1 | 1 (yes) |
| COc1ccc(/C=C\c2cc(OC)c(OC)c(OC)c2)cc1O [COMBRETASTATIN A4] | THP-1 | 1 (yes) |
| COc1ccc(/C=C\c2cc(OC)c(OC)c(OC)c2)cc1OCC(=O)Nc1nc2ccc([N+](=O)[O-])cc2s1 | THP-1 | 1 (yes) |
| COc1ccc(/C=C\c2cc(OC)c(OC)c(OC)c2)cc1OCC(=O)Nc1nc2c(C)cccc2s1 | THP-1 | 0 (no) |
| COc1ccc(/C=C\c2cc(OC)c(OC)c(OC)c2)cc1OCC(=O)Nc1nc2ccc(C)cc2s1 | THP-1 | 0 (no) |
| COc1ccc2nc(NC(=O)COc3cc(/C=C\c4cc(OC)c(OC)c(OC)c4)ccc3OC)sc2c1 | THP-1 | 1 (yes) |
| COc1ccc(/C=C\c2cc(OC)c(OC)c(OC)c2)cc1OCC(=O)Nc1nc2ccc(F)cc2s1 | THP-1 | 1 (yes) |
| COc1ccc(/C=C\c2cc(OC)c(OC)c(OC)c2)cc1OCC(=O)Nc1nc2ccc(C(F)(F)F)cc2s1 | THP-1 | 0 (no) |
| COc1ccc(/C=C\c2cc(OC)c(OC)c(OC)c2)cc1OCC(=O)Nc1ccc2nc(C)sc2c1 | THP-1 | 1 (yes) |
| COc1ccc(/C=C\c2cc(OC)c(OC)c(OC)c2)cc1OCC(=O)Nc1nc2cc(C)c(C)cc2s1 | THP-1 | 1 (yes) |
| COc1ccc(/C=C\c2cc(OC)c(OC)c(OC)c2)cc1OCC(=O)Nc1nc2ccc(OC(F)(F)F)cc2s1 | THP-1 | 1 (yes) |
| CCOc1ccc2nc(NC(=O)COc3cc(/C=C\c4cc(OC)c(OC)c(OC)c4)ccc3OC)sc2c1 | THP-1 | 0 (no) |
| COc1ccc(/C=C\c2cc(OC)c(OC)c(OC)c2)cc1OCC(=O)Nc1ccc2ncsc2c1 | THP-1 | 0 (no) |
| COc1ccc(/C=C\c2cc(OC)c(OC)c(OC)c2)cc1OCC(=O)Nc1nc2ccc(Cl)cc2s1 | THP-1 | 1 (yes) |

----------
Tested on: SK-MEL-28
method: Growth inhibition of human SK-MEL-28 cells after 48 hrs by SRB assay
Type: functional
study.conditions: SK-MEL-28, 48 h
Catalogue of GI50 values
experimental.readout: GI50 (µM)

| compound | experimental.readout | uom | numeric.result |
| --- | --- | --- | --- |
| COc1ccc(/C=C\c2cc(OC)c(OC)c(OC)c2)cc1OCC(=O)Nc1nc2ccc(C(F)(F)F)cc2s1 | GI50 | µM | 3 |
| COc1ccc2nc(NC(=O)COc3cc(/C=C\c4cc(OC)c(OC)c(OC)c4)ccc3OC)sc2c1 | GI50 | µM | 4.41 |
| COc1ccc(/C=C\c2cc(OC)c(OC)c(OC)c2)cc1O [COMBRETASTATIN A4] | GI50 | µM | 0.007 |
| COc1ccc(/C=C\c2cc(OC)c(OC)c(OC)c2)cc1OCC(=O)Nc1nc2ccc(OC(F)(F)F)cc2s1 | GI50 | µM | 4.57 |
| COc1ccc(/C=C\c2cc(OC)c(OC)c(OC)c2)cc1OCC(=O)Nc1ccc2nc(C)sc2c1 | GI50 | µM | 3.22 |
